Below is a list of entries, each paired with its recorded CC50 value.
Assay: NOVARTIS: Cytotoxicity against human hepatocellular carcinoma cell line (Huh7)
Format: toxicity, cell-based, Huh-7
Conditions: Huh7 cells (hepatocellular carcinoma cell line)

Consider the worked cases shown below.
compound | CC50
O=C(CNCCc1ccccc1)NC(c1ccccc1)c1ccccc1 | 45.4 µM
Cc1cccnc1NC(=O)CCCC(=O)O | > 10 µM

input: Requested read-out: CC50. Entry: Cc1[nH]n(-c2ccccc2)c(=O)c1C(=O)CN(C(=O)c1ccc2c(c1)OCO2)C(C)C
output: > 10 µM

input: Again, but for CC1=C(C(=O)OC(C)C)C(c2ccccc2F)C2=C(CC(c3ccc(Cl)cc3)CC2=O)N1 (stereo not drawn)
output: > 100 µM

input: Next entry: c1ccc(CSc2nnc3c(n2)[nH]c2ccccc23)cc1
output: > 10 µM

input: Lookup Cc1cccc(OCC(O)CN2CCN(CC(=O)c3ccc(Br)cc3)CC2)c1 (stereo not drawn)
output: 0.214 µM

input: Now give it for COc1ccc(C2C(C(=O)Nc3cccc(C(F)(F)F)c3)c3ccccc3C(=O)N2C2CCCCC2)cc1 (stereo not drawn) too.
output: > 100 µM

input: Moving on to the next compound: COc1ccc(Nc2nc3nonc3nc2NN=Cc2cc(Cl)ccc2O)cc1
output: > 3.17 µM
